A collection of compounds and their measured Cmax
experimentNotes: Cmax in mouse serum at 300 mg/kg, po
Format: ADME, organism-based
Design: dose 300 mg/kg, route oral
conditionNotes: serum
measuredProperty: Cmax

[
  {
    "inputSmiles": "O=C(NCc1ccc(N2CCN(Cc3ccccc3)CC2)nc1)c1ccc([N+](=O)[O-])o1",
    "valueObserved": "1470 ng/mL"
  },
  {
    "inputSmiles": "CC(C)(C)OC(=O)N1CCCN(c2ccc(CNC(=O)c3ccc([N+](=O)[O-])o3)cc2)CC1",
    "valueObserved": "280 ng/mL"
  },
  {
    "inputSmiles": "CC(C)NC(=O)N1CCN(c2ccc(CNC(=O)c3ccc([N+](=O)[O-])o3)cn2)CC1",
    "valueObserved": "22000 ng/mL"
  },
  {
    "inputSmiles": "CCOC(=O)N1CCN(c2ccc(CNC(=O)c3ccc([N+](=O)[O-])o3)cn2)CC1",
    "valueObserved": "6560 ng/mL"
  },
  {
    "inputSmiles": "Cl.O=C(c1ccc([N+](=O)[O-])o1)N1CCc2cc(N3CCN(Cc4ccccc4)CC3)ccc2C1",
    "valueObserved": "736 ng/mL"
  },
  {
    "inputSmiles": "CN1CCN(c2ccc3c(c2)CCN(C(=O)c2ccc([N+](=O)[O-])o2)C3)CC1.Cl",
    "valueObserved": "280 ng/mL"
  },
  {
    "inputSmiles": "CC(C)NC(=O)N1CCCN(c2ccc(CNC(=O)c3ccc([N+](=O)[O-])o3)cc2)CC1",
    "valueObserved": "7400 ng/mL"
  },
  {
    "inputSmiles": "CC(C)(C)OC(=O)N1CCN(c2ccc(CNC(=O)c3ccc([N+](=O)[O-])o3)cn2)CC1",
    "valueObserved": "1230 ng/mL"
  },
  {
    "inputSmiles": "CCCNC(=O)N1CCN(c2ccc(CNC(=O)c3ccc([N+](=O)[O-])o3)cc2)CC1",
    "valueObserved": "4800 ng/mL"
  }
]

====

Tested on: Mycobacterium tuberculosis
experimentNotes: Antituberculosis activity against Mycobacterium tuberculosis
Assay type: functional
measuredProperty: log10 MIC90 (log10 of the value in µg/mL)

[
  {
    "inputSmiles": "CCOC(=O)N1CCCN(c2ccc(CNC(=O)c3ccc([N+](=O)[O-])o3)cc2)CC1",
    "testedOn": "Mycobacterium tuberculosis",
    "log10 MIC90": -1.00
  },
  {
    "inputSmiles": "CC(C)NC(=O)N1CCCN(c2ccc(CNC(=O)c3ccc([N+](=O)[O-])o3)cc2)CC1",
    "testedOn": "Mycobacterium tuberculosis",
    "log10 MIC90": -0.10
  },
  {
    "inputSmiles": "O=C(c1ccc([N+](=O)[O-])o1)N1CCc2cc(N3CCN(Cc4ccccc4)CC3)ccc2C1",
    "testedOn": "Mycobacterium tuberculosis",
    "log10 MIC90": -2.21
  },
  {
    "inputSmiles": "CC(C)(C)OC(=O)N1CCN(c2ccc(CNC(=O)c3ccc([N+](=O)[O-])o3)cn2)CC1",
    "testedOn": "Mycobacterium tuberculosis",
    "log10 MIC90": -1.30
  },
  {
    "inputSmiles": "CC(C)NC(=O)N1CCN(c2ccc(CNC(=O)c3ccc([N+](=O)[O-])o3)cn2)CC1",
    "testedOn": "Mycobacterium tuberculosis",
    "log10 MIC90": -0.25
  },
  {
    "inputSmiles": "O=C(NCc1ccc(N2CCCN(Cc3ccccc3)CC2)cc1)c1ccc([N+](=O)[O-])o1",
    "testedOn": "Mycobacterium tuberculosis",
    "log10 MIC90": -0.10
  },
  {
    "inputSmiles": "CC(C)NC(=O)N1CCN(c2ccc(CNC(=O)c3ccc([N+](=O)[O-])o3)cc2)CC1",
    "testedOn": "Mycobacterium tuberculosis",
    "log10 MIC90": -0.10
  },
  {
    "inputSmiles": "COC(=O)N1CCN(c2ccc(CNC(=O)c3ccc([N+](=O)[O-])o3)cc2)CC1",
    "testedOn": "Mycobacterium tuberculosis",
    "log10 MIC90": -1.00
  },
  {
    "inputSmiles": "CCOC(=O)N1CCN(c2ccc(CNC(=O)c3ccc([N+](=O)[O-])o3)cn2)CC1",
    "testedOn": "Mycobacterium tuberculosis",
    "log10 MIC90": -1.30
  },
  {
    "inputSmiles": "CC(C)COC(=O)N1CCN(c2ccc(CNC(=O)c3ccc([N+](=O)[O-])o3)cc2)CC1",
    "testedOn": "Mycobacterium tuberculosis",
    "log10 MIC90": -1.30
  },
  {
    "inputSmiles": "CCOC(=O)N1CCN(c2ccc(CNC(=O)c3ccc([N+](=O)[O-])o3)cc2)CC1",
    "testedOn": "Mycobacterium tuberculosis",
    "log10 MIC90": -2.21
  },
  {
    "inputSmiles": "CCCNC(=O)N1CCN(c2ccc(CNC(=O)c3ccc([N+](=O)[O-])o3)cc2)CC1",
    "testedOn": "Mycobacterium tuberculosis",
    "log10 MIC90": -0.70
  },
  {
    "inputSmiles": "O=C(c1ccc([N+](=O)[O-])o1)N1CCc2cc(N3CCSCC3)ccc2C1",
    "testedOn": "Mycobacterium tuberculosis",
    "log10 MIC90": -0.40
  },
  {
    "inputSmiles": "O=C(NCc1ccc(N2CCN(Cc3ccccc3)CC2)nc1)c1ccc([N+](=O)[O-])o1",
    "testedOn": "Mycobacterium tuberculosis",
    "log10 MIC90": -2.21
  },
  {
    "inputSmiles": "CN1CCN(c2ccc3c(c2)CCN(C(=O)c2ccc([N+](=O)[O-])o2)C3)CC1",
    "testedOn": "Mycobacterium tuberculosis",
    "log10 MIC90": -0.70
  },
  {
    "inputSmiles": "CCCCOC(=O)N1CCN(c2ccc(CNC(=O)c3ccc([N+](=O)[O-])o3)cc2)CC1",
    "testedOn": "Mycobacterium tuberculosis",
    "log10 MIC90": -1.30
  },
  {
    "inputSmiles": "O=C(NCc1ccc(N2CCN(Cc3ccccc3)CC2)cc1)c1ccc([N+](=O)[O-])o1",
    "testedOn": "Mycobacterium tuberculosis",
    "log10 MIC90": -1.90
  },
  {
    "inputSmiles": "CC(C)(C)OC(=O)N1CCN(c2ccc(CNC(=O)c3ccc([N+](=O)[O-])o3)cc2)CC1",
    "testedOn": "Mycobacterium tuberculosis",
    "log10 MIC90": -1.60
  },
  {
    "inputSmiles": "CC(C)(C)OC(=O)N1CCCN(c2ccc(CNC(=O)c3ccc([N+](=O)[O-])o3)cc2)CC1",
    "testedOn": "Mycobacterium tuberculosis",
    "log10 MIC90": -1.00
  },
  {
    "inputSmiles": "C=CCOC(=O)N1CCN(c2ccc(CNC(=O)c3ccc([N+](=O)[O-])o3)cc2)CC1",
    "testedOn": "Mycobacterium tuberculosis",
    "log10 MIC90": -0.30
  }
]

====

experimentNotes: Half life in mouse serum at 300 mg/kg, po
Assay type: ADME, organism-based
Design: dose 300 mg/kg, route oral
A collection of compounds and their measured half-life

[
  {
    "inputSmiles": "CC(C)NC(=O)N1CCN(c2ccc(CNC(=O)c3ccc([N+](=O)[O-])o3)cn2)CC1",
    "half-life": "0.5 h"
  },
  {
    "inputSmiles": "CC(C)(C)OC(=O)N1CCCN(c2ccc(CNC(=O)c3ccc([N+](=O)[O-])o3)cc2)CC1",
    "half-life": "7.5 h"
  },
  {
    "inputSmiles": "CCOC(=O)N1CCN(c2ccc(CNC(=O)c3ccc([N+](=O)[O-])o3)cn2)CC1",
    "half-life": "0.7 h"
  },
  {
    "inputSmiles": "CCCNC(=O)N1CCN(c2ccc(CNC(=O)c3ccc([N+](=O)[O-])o3)cc2)CC1",
    "half-life": "1.5 h"
  },
  {
    "inputSmiles": "CC(C)NC(=O)N1CCCN(c2ccc(CNC(=O)c3ccc([N+](=O)[O-])o3)cc2)CC1",
    "half-life": "2 h"
  },
  {
    "inputSmiles": "CC(C)(C)OC(=O)N1CCN(c2ccc(CNC(=O)c3ccc([N+](=O)[O-])o3)cn2)CC1",
    "half-life": "2.3 h"
  },
  {
    "inputSmiles": "O=C(NCc1ccc(N2CCN(Cc3ccccc3)CC2)nc1)c1ccc([N+](=O)[O-])o1",
    "half-life": "1.3 h"
  },
  {
    "inputSmiles": "CN1CCN(c2ccc3c(c2)CCN(C(=O)c2ccc([N+](=O)[O-])o2)C3)CC1.Cl",
    "half-life": "2 h"
  },
  {
    "inputSmiles": "Cl.O=C(c1ccc([N+](=O)[O-])o1)N1CCc2cc(N3CCN(Cc4ccccc4)CC3)ccc2C1",
    "half-life": "3.5 h"
  }
]
